Assay: Growth inhibition of parental human U937 cells after 72 hrs by celltiter-glo assay
Assay type: cell-based, U-937
test readout: GI50 at 72 h (nM)
Kindly answer with a numeric value in nM, unit omitted.

For record CCN1CCN(c2ccc(Nc3ncc4c(n3)N(C)C(=O)N(c3cc(NC(=O)c5cccc(C(F)(F)F)c5)ccc3C)C4)cn2)CC1 the listed GI50 at 72 h is 1410

Cc1ccc(NC(=O)c2cccc(C(F)(F)F)c2)cc1N1Cc2cnc(NCCO)nc2N(C)C1=O yielded GI50 at 72 h of 8530

Noted for Cc1ccc(Nc2ncc3c(n2)N(C)C(=O)N(c2cc(NC(=O)c4ccc(C)c(C(F)(F)F)c4)ccc2C)C3)cn1 : its GI50 at 72 h reads 19400

Entry Cc1ccc(NC(=O)c2cccc(C(F)(F)F)c2)cc1N1Cc2cnc(N)nc2N(C)C1=O — recorded GI50 at 72 h = 4970

The compound identified as Cc1ccc(Nc2ncc3c(n2)N(C)C(=O)N(c2cc(NC(=O)c4cc(N5CCOCC5)cc(C(F)(F)F)c4)ccc2C)C3)cn1 registered its GI50 at 72 h at 2800

Notebook: Cc1ccc(Nc2ncc3c(n2)N(C)C(=O)N(c2cc(NC(=O)c4cccc(C(F)(F)F)c4)ccc2C)C3)cn1 , GI50 at 72 h read as 4380

Short answer for CC(=O)N1CCN(c2ccc(Nc3ncc4c(n3)N(C)C(=O)N(c3cc(NC(=O)c5cccc(C(F)(F)F)c5)ccc3C)C4)cn2)CC1 : GI50 at 72 h was 2480

Lab book: GI50 at 72 h of Cc1cc(Nc2ncc3c(n2)N(C)C(=O)N(c2cc(NC(=O)c4cccc(C(F)(F)F)c4)ccc2C)C3)n(C)n1 noted as 2460

The compound identified as Cc1ccc(NC(=O)c2cccc(C(F)(F)F)c2)cc1N1Cc2cnc(Nc3cnn(C)c3)nc2N(C)C1=O registered its GI50 at 72 h at 1120

Form: compound = CCN1CCN(C(=O)c2ccc(Nc3ncc4c(n3)N(C)C(=O)N(c3cc(NC(=O)c5cccc(C(F)(F)F)c5)ccc3C)C4)cn2)CC1 ; GI50 at 72 h = 6480

Please fill in: GI50 at 72 h reported for CCN1CCN(c2ccc(Nc3ncc4c(n3)N(C)C(=O)N(c3cc(NC(=O)c5cccc(C(F)(F)F)c5)ccc3C)C4)cc2)CC1 = 839

Given item Cc1ccc(Nc2ncc3c(n2)N(C)C(=O)N(c2cc(NC(=O)c4cc(N5CCC(O)CC5)cc(C(F)(F)F)c4)ccc2C)C3)cn1 , the value recorded as its GI50 at 72 h is 2180

compound Cc1ccc(Nc2ncc3c(n2)N(C)C(=O)N(c2cc(NC(=O)c4ccc(CN5CCC(N(C)C)C5)c(C(F)(F)F)c4)ccc2C)C3)cn1 (centres undefined) , GI50 at 72 h observed: 1970

Values from ChEMBL document CHEMBL4196175
